TARGET OF ASSAY: phosphorylated active hERK2 enzyme (Homo sapiens (Human))
TEST PROTOCOL: Active Human ERK2 (hERK2) Activity Assay (IMAP-FP)
Format: biochemical
CONDITION DESCRIPTION: Table 6, 0.5 nM hERK2, 30 μM ATP, 10 point titration, read-out: AERK2 IC50
pIC50: −log10 of the molar value.
EXPERIMENTAL READOUT: pIC50

Solved entries (count: 6):
> print(dat)
                                   compound  experimental.readout  value.reported
1  C[C@@H](NC(=O)Nc1cc2[nH]nc(NC(=O)C3CCC3)c2cn1)c1ccccc1                 pIC50            9.30
2  CC[C@H](NC(=O)Nc1cc2[nH]nc(N3CCCC3)c2cn1)c1ccccn1                 pIC50            7.86
3  CCNc1n[nH]c2cc(NC(=O)N[C@@H](c3ccccc3)[C@@H]3CCCO3)ncc12                 pIC50            9.10
4  CCNc1n[nH]c2cc(NC(=O)N[C@@H](c3ccccc3)C(C)(C)OC)ncc12                 pIC50            9.30
5  C[C@@H](NC(=O)Nc1cc2[nH]nc(NC3CCNCC3)c2cn1)c1ccccc1                 pIC50            6.78
6  C[C@@H](NC(=O)Nc1cc2[nH]nc(Nc3ccc(F)nc3)c2cn1)c1ccccc1                 pIC50            7.14

a: C[C@@H](NC(=O)Nc1cc2[nH]nc(NC3CCOCC3)c2cn1)c1ccccc1
b: CC(=O)Nc1n[nH]c2cc(NC(=O)N[C@@H](c3ccc(F)cc3)C(C)(C)O)ncc12
Compare the recorded pIC50 of a and b ; state which is larger. State the label of the item chosen.
b

a: CCNc1n[nH]c2cc(NC(=O)N[C@H](CSC)c3ccccc3)ncc12
b: C[C@@H]1CN(c2n[nH]c3cc(NC(=O)NC(c4ccc(F)cc4)C(C)(C)O)ncc23)C[C@H](C)O1 (some centres unmarked)
c: COC[C@@H](NC(=O)Nc1cc2[nH]nc(NC3CCC3)c2cn1)c1ccccc1
d: COC(=O)Nc1n[nH]c2cc(NC(=O)NC3COc4ccccc4C3)ncc12 (centres unmarked)
// ranking: key=pIC50, reverse=True Put the labels in the requested order and list them out.
c, a, b, d
(c: 9.40, a: 9.10, b: 8.80, d: 7.58)

I: CCNc1n[nH]c2cc(NC(=O)NC(C(=O)N(CC)CC)c3ccc(F)cc3)ncc12 (centres unmarked)
II: O=C(Nc1cc2[nH]nc(Nc3ccccc3Cl)c2cn1)N[C@@H]1CCCOc2ccccc21
Identify the entry with the smaller pIC50: I or II . Pick one; state its label.
I
(I: 6.38, II: 7.22)

a: CN(C)c1ncccc1CNC(=O)Nc1cc2[nH]nc(N)c2cn1
b: CC(CNC(=O)Nc1cc2[nH]nc(N)c2cn1)c1ccccc1 (centres unmarked)
Form field 'greater pIC50' accepts a or b ; which applies? Which one? Tell me its label.
a

---

TARGET OF ASSAY: phosphorylated active hERK2 enzyme (Homo sapiens (Human), UniProt P28482)
Sequence (P28482 whole entry): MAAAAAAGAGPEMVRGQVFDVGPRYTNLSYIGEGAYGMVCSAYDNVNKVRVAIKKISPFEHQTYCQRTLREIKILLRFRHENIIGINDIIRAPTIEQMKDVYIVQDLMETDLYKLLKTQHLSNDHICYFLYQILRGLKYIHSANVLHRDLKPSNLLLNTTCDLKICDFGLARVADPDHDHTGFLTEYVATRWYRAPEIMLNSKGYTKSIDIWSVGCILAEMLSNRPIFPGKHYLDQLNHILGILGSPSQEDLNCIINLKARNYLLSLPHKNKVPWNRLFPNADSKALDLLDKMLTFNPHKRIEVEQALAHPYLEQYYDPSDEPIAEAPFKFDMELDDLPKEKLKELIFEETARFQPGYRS
TEST PROTOCOL: Active Human ERK2 (hERK2) Activity Assay (IMAP-FP)
Assay type: biochemical
CONDITION DESCRIPTION: Table 6, 0.5 nM hERK2, 30 μM ATP, 10 point titration, read-out: AERK2 IC50
pIC50: −log10 of the molar value.
EXPERIMENTAL READOUT: pIC50

Examples with their reported pIC50 follow.
> print(dat)
                                   molecule                           target.of.assay  experimental.readout  value.reported
1  CCNc1n[nH]c2cc(NC(=O)NC(C)c3ccc(F)nc3)ncc12 (stereo not drawn)  phosphorylated active hERK2 enzyme (Homo sapiens (Human), UniProt P28482)                 pIC50            7.47
2  CNc1n[nH]c2cc(NC(=O)N[C@H](C)c3ccccc3)nc(C)c12  phosphorylated active hERK2 enzyme (Homo sapiens (Human), UniProt P28482)                 pIC50            7.93
3  C[C@@H](NC(=O)Nc1cc2[nH]nc(N3CC(C#N)C3)c2cn1)c1ccccc1  phosphorylated active hERK2 enzyme (Homo sapiens (Human), UniProt P28482)                 pIC50            8.00
4  C[C@@H](NC(=O)Nc1cc2[nH]nc(NC3CC[S+]([O-])C3)c2cn1)c1ccccc1 (stereo partly drawn)  phosphorylated active hERK2 enzyme (Homo sapiens (Human), UniProt P28482)                 pIC50            8.59
5  C[C@@H](NC(=O)Nc1cc2[nH]nc(NC(=O)OC(C)(C)C)c2cn1)c1ccccc1  phosphorylated active hERK2 enzyme (Homo sapiens (Human), UniProt P28482)                 pIC50            7.32

P: Cc1nc(NC(=O)N[C@@H](c2ccccc2)C(C)(C)O)cc2[nH]nc(N3CCOCC3)c12
Q: C[C@@H](NC(=O)Nc1cc2[nH]nc(NCC3CCCCO3)c2cn1)c1ccccc1 (stereo partly drawn)
Short answer wanted: higher pIC50, P or Q ? Indicate which entry you chose by stating its label.
P

I: COCC1CN(c2n[nH]c3cc(NC(=O)N[C@H](COC)c4ccccc4)ncc23)C1
II: C[C@@H](NC(=O)Nc1cc2[nH]nc(NC3=CC(=O)CC3)c2cn1)c1ccccc1
From the items above, decide which of I and II has the lower pIC50 reading. # reply format: chosen label
II
(II: 7.41, I: 8.43)

a: COc1cccc(F)c1CNC(=O)Nc1cc2[nH]nc(N)c2cn1
b: CCNc1n[nH]c2cc(NC(=O)NC3CCCC3c3ccccc3)ncc12 (stereo not drawn)
c: COC[C@@H](NC(=O)Nc1cc2[nH]nc(NC3CCOCC3)c2cn1)c1ccccc1
d: C[C@H](O)[C@@H](NC(=O)Nc1cc2[nH]nc(N3CCOCC3)c2cn1)c1ccc(F)cc1
e: CCNc1n[nH]c2cc(NC(=O)NC3COc4ccccc43)ncc12 (stereo not drawn)
# rank_down: sort by pIC50, max first Give the labels in the order specified.
d, c, a, b, e
(d: 9.70, c: 9.10, a: 8.48, b: 8.08, e: 6.48)
